Taken from PubChem BioAssay (NCI).

# measurement-description: NCI Yeast Anticancer Drug Screen. Data for the sgs1 strain (AID 173);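 also: 0% = growth of vehicle-only control cultures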
# assay-conditions: S. cerevisiae sgs1 mutant, at 3.7 µM, active compounds read high
About 79,000 compounds went through this panel and 15% of them were active in at least one assay; those are over-represented in the sample as a whole.
Entries and their growth inhibition
Provide the reading as a plain figure in %.

Worked examples follow.
CCOc1ccc(NC(=O)C2=C(C)NC(C)=C(C(=O)Nc3ccc(OCC)cc3)C2c2cccc([N+](=O)[O-])c2)cc1
0
CC(C)C(C)/C=C\C(C)C1CCC2C3=CC=C4CC(O)CCC4(C)C3CCC21C (stereo not given)
-4

## Input // returns reported growth inhibition for input `COc1ccc(C(=O)Oc2ccccc2Br)cc1`
## Output -13

## Input Cc1ccc(NC(c2ccccc2)c2ccc3cccnc3c2O)cc1 (stereo not given) , same question.
## Output 3

## Input `O=C1C=C(N2CCN(c3ccccn3)CC2)C(=O)c2c(O)ccc(O)c21` , same question.
## Output 11

## Input `Cc1ccc2nc(-c3cccc([N+](=O)[O-])c3)oc(=O)c2c1` , same question.
## Output -16

## Input `C/C=C/SC(=Nc1ccccc1)Nc1ccccc1` , same question.
## Output -5

## Input Nc1nc2ccc(NCc3ccc(C(=O)NC(CCC(=O)O)C(=O)O)cc3)cc2c(=O)[nH]1 (stereo not given) , same question.
## Output 9

## Input CN(C)C=NC1CCC(C(C)(C)C)CC1 (stereo not given) , same question.
## Output 2

## Input `Cc1nc(Nc2ccccc2[N+](=O)[O-])sc1C(=O)CC(=O)C(=O)Nc1c(C(C)C)cccc1C(C)C` , same question.
## Output 4

====

# measurement-description: NCI Yeast Anticancer Drug Screen. Data for the mec2-1 strain (AID 157)
# assay-conditions: S. cerevisiae mec2-1 strain, at 33.0 µM, active compounds read high
Compounds without any hit were thinned out: in the full panel of roughly 79,000, 15% have a hit.
experimental-readout: growth inhibition (%)
Provide the reading as a plain figure in %.

Worked examples follow.
O=C1NC(SSC2=NNC3(C(=O)N2)c2ccccc2-c2ccccc23)=NNC12c1ccccc1-c1ccccc12
7
Nc1n[n+]([O-])c2ccc(Cl)cc2[n+]1[O-]
83
O=Cc1ccc2c(c1)C(=O)c1ccccc1C2=O
21
c1ccc2c(OCC3CO3)cccc2c1 (stereo not drawn)
32
O=C1c2ccccc2C(=O)c2cc(CCl)ccc21
20
O=C(C[n+]1ccc2ccccc2c1)c1ccc2ccccc2c1
-41

## Input // returns reported growth inhibition for input `O=C(O)c1ccccc1/C=N/N=C1c2ccccc2-c2ccccc21`
## Output 0

## Input COc1ccc(NC(=O)CC2SC(=Nc3ccccc3C)NC2=O)c([N+](=O)[O-])c1 (stereo not drawn) , same question.
## Output 15

## Input `CN1C(=O)c2ccc3ccccc3c2C1=O` , same question.
## Output 17

## Input `CC(C)/C(Cl)=N\OC(=O)Nc1ccc(F)cc1F` , same question.
## Output 28

## Input `NNC(=O)CCc1cc2ccccc2c2ccccc12` , same question.
## Output -2

## Input O=C1c2cccnc2C(=O)C2C3C=CC(C3)C12 (stereo not drawn) , same question.
## Output 98

## Input `COc1cc(O)c2c(c1O)C(=O)c1cc(C)ncc1C2=O` , same question.
## Output 9

## Input `CCCCC/C(=C(\C#N)C(=O)OCC)c1ccccc1` , same question.
## Output 0

## Input CCOC(=O)[C@H]1Nc2ccc(OC)cc2C2c3ccccc3CC21 (stereo partly drawn) , same question.
## Output 29

## Input `CN(C)CCNC(=O)c1cccc2cc([N+](=O)[O-])ccc12` , same question.
## Output 70

## Input `Cc1nc2ccc(N=NN(C)C)cc2[nH]1` , same question.
## Output 98

## Input C[Si](C)(C)/C=C/CCNC(C#N)c1ccccc1 (stereo not drawn) , same question.
## Output 23

## Input `Nc1ccc(F)cc1S` , same question.
## Output 81

## Input O=C(NNc1ccccc1)C(O)C(O)C(O)C(O)C(O)CO (stereo not drawn) , same question.
## Output 52

## Input `CCOC(=O)/C(=C\c1ccc(C#N)cc1)C(C)=O` , same question.
## Output 92

## Input Cc1cccc(C(C)(C)C)c1NC(=O)C(C#N)C1=C(Cl)C(=O)c2ccccc2C1=O (stereo not drawn) , same question.
## Output 95
